system: Proteus vulgaris; assay: MIC against Gram-negative bacteria: Proteus vulgaris; assay type: cell-based; conditions: 10 h cultivation at 37° C., 5×10^5 CFU/mL, two-fold serial dilution
Examples of substances with documented MIC P. vulgaris follow.

SUBSTANCE | MIC P. vulgaris / µg/mL
PRT1083 (GTNVCAVANGGCQQLCLYRGRGQRACACAHGMLAEDGASCR; listed as Homo sapiens) | 50
PRT1151 (QFASCENNPCGNGATCVPKSGTDIVCLCPYGRSGPLCT; listed as Homo sapiens) | 12.5
PRT1131 (RMPGCQHGTCHQPWQCICHSGWAGKFCD; listed as Homo sapiens) | 50
PRT1080 (IQSYCAKHLKCSQKCDQNKFSVKCSCYEGWVLEPDGESCR; listed as Homo sapiens) | 25
PRT1100 (DIDECASDPCVNGGLCQDLLNKFQCLCDVAFAGERCE; listed as Homo sapiens) | 25
PRT1076 (SCLTCVGHCSNGGSCTMNSKMMPECQCPPHMTGPRCE; listed as Homo sapiens) | 12.5
PRT1098 (DIDNCQSHQCANGATCISHTNGYSCLCFGNFTGKFCR; listed as Homo sapiens) | 25
PRT1177 (DANECEAKPCVNAKSCKNLIASYYCDCLPGWMGQNCD; listed as Homo sapiens) | 12.5
PRT1166 (DTPEGVRYISSNVCGPHGKCKSQSGGKFTCDCNKGFTGTYCH; listed as Homo sapiens) | 50
PRT1162 (DIDDCILNACEHNSTCKDLHLSYQCVCLSDWEGNFCE; listed as Homo sapiens) | 50
PRT1176 (NIDDCSPNNCSHGGTCQDLVNGFKCVCPPQWTGKTCQ; listed as Homo sapiens) | 25
PRT1055 (GADPCLYQNGGCEHICKKRLGTAWCSCREGFMKASDGKTCL; listed as Homo sapiens) | 50
